- Test system: biotinyl-Phe-oxazolone
- assay-protocol: self-aminoacylation, catalytic enhancement (BFO) (fold over background); higher = more active; k-Seq, kA / k0A0; sequences stand for … in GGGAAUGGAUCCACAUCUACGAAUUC…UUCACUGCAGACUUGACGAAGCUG
Variants at the floor of the assay were thinned out.
Label scheme for self-aminoacylation: lower than 3 is false (0), 3 and above is true (1).

{"query-sequence": "UCACACUUCAAGCAAUCGGUA [Fam1B.1 aminoacylation ribozyme variant]", "target-desc": "biotinyl-Phe-oxazolone", "class-label": "false (0)"}
{"query-sequence": "UUUCACCUAUGUCAUCGGGUG [Fam2.2 aminoacylation ribozyme variant]", "target-desc": "biotinyl-Phe-oxazolone", "class-label": "true (1)"}
{"query-sequence": "CUACAGCAAACAAUCGGUCUG [Fam1A.1 aminoacylation ribozyme variant]", "target-desc": "biotinyl-Phe-oxazolone", "class-label": "false (0)"}
{"query-sequence": "AUUGCCCUAGUCAUCGAGUGA [Fam2.1 aminoacylation ribozyme variant]", "target-desc": "biotinyl-Phe-oxazolone", "class-label": "true (1)"}
{"query-sequence": "CCACACUUCAACCAAUCGGUU [Fam1B.1 aminoacylation ribozyme variant]", "target-desc": "biotinyl-Phe-oxazolone", "class-label": "true (1)"}
{"query-sequence": "AAGUUAGCUAAAAGUCGCAAG [Fam3.1 aminoacylation ribozyme variant]", "target-desc": "biotinyl-Phe-oxazolone", "class-label": "false (0)"}
{"query-sequence": "AUUGCCCUGGUCAUUGAGUGA [Fam2.1 aminoacylation ribozyme variant]", "target-desc": "biotinyl-Phe-oxazolone", "class-label": "true (1)"}
{"query-sequence": "AAGUUUGCUAAUAGUUGGAAG [Fam3.1 aminoacylation ribozyme variant]", "target-desc": "biotinyl-Phe-oxazolone", "class-label": "false (0)"}
{"query-sequence": "CCAUACUUCAAGCACUCGGUC [Fam1B.1 aminoacylation ribozyme variant]", "target-desc": "biotinyl-Phe-oxazolone", "class-label": "false (0)"}
{"query-sequence": "CCACACUGGAAGCAAUCGGUC [Fam1B.1 aminoacylation ribozyme variant]", "target-desc": "biotinyl-Phe-oxazolone", "class-label": "false (0)"}
{"query-sequence": "AUUAACCUGGUCAUGGAGUGA [Fam2.1 aminoacylation ribozyme variant]", "target-desc": "biotinyl-Phe-oxazolone", "class-label": "true (1)"}
{"query-sequence": "AAGUUUGCUAAGAGACGCAAG [Fam3.1 aminoacylation ribozyme variant]", "target-desc": "biotinyl-Phe-oxazolone", "class-label": "false (0)"}
{"query-sequence": "CUACUCCAAACAAUCGGUCUU [Fam1A.1 aminoacylation ribozyme variant]", "target-desc": "biotinyl-Phe-oxazolone", "class-label": "false (0)"}
{"query-sequence": "CUACUUCAAACAAUCGGGCUC [Fam1A.1 aminoacylation ribozyme variant]", "target-desc": "biotinyl-Phe-oxazolone", "class-label": "true (1)"}
{"query-sequence": "AAGUCUGCUAAUAGUCUCAAG [Fam3.1 aminoacylation ribozyme variant]", "target-desc": "biotinyl-Phe-oxazolone", "class-label": "true (1)"}
{"query-sequence": "AAGUUUGCUAAUACUGGCAAG [Fam3.1 aminoacylation ribozyme variant]", "target-desc": "biotinyl-Phe-oxazolone", "class-label": "false (0)"}
{"query-sequence": "AUUCACCUUGGACAUCGGGUG [Fam2.2 aminoacylation ribozyme variant]", "target-desc": "biotinyl-Phe-oxazolone", "class-label": "true (1)"}
{"query-sequence": "AAGUUUGCUAAUAGACGGAAG [Fam3.1 aminoacylation ribozyme variant]", "target-desc": "biotinyl-Phe-oxazolone", "class-label": "false (0)"}
{"query-sequence": "AUUCCCCUAGGUCACCGGGUG [Fam2.2 aminoacylation ribozyme variant]", "target-desc": "biotinyl-Phe-oxazolone", "class-label": "true (1)"}
{"query-sequence": "AAGUUUGCUAAUAAUCGUAAG [Fam3.1 aminoacylation ribozyme variant]", "target-desc": "biotinyl-Phe-oxazolone", "class-label": "true (1)"}
{"query-sequence": "AAGUUAGCUCAUAGUCGCAAG [Fam3.1 aminoacylation ribozyme variant]", "target-desc": "biotinyl-Phe-oxazolone", "class-label": "true (1)"}
{"query-sequence": "CCACACAACAAGCAAUCGGUC [Fam1B.1 aminoacylation ribozyme variant]", "target-desc": "biotinyl-Phe-oxazolone", "class-label": "false (0)"}
{"query-sequence": "CAGUUUGCUAAUAGUCGCAAU [Fam3.1 aminoacylation ribozyme variant]", "target-desc": "biotinyl-Phe-oxazolone", "class-label": "false (0)"}
{"query-sequence": "AAGUUUGCUAAUAUUAGCAAG [Fam3.1 aminoacylation ribozyme variant]", "target-desc": "biotinyl-Phe-oxazolone", "class-label": "false (0)"}
{"query-sequence": "ACUACCCUGGUCAUCGAGUGA [Fam2.1 aminoacylation ribozyme variant]", "target-desc": "biotinyl-Phe-oxazolone", "class-label": "true (1)"}
{"query-sequence": "CCAUACUACAAGCAAUCGGUC [Fam1B.1 aminoacylation ribozyme variant]", "target-desc": "biotinyl-Phe-oxazolone", "class-label": "false (0)"}
{"query-sequence": "AUUCACCUAGGUUAUAGGGUG [Fam2.2 aminoacylation ribozyme variant]", "target-desc": "biotinyl-Phe-oxazolone", "class-label": "true (1)"}
{"query-sequence": "AUUACCGUGGUCAUCAAGUGA [Fam2.1 aminoacylation ribozyme variant]", "target-desc": "biotinyl-Phe-oxazolone", "class-label": "true (1)"}
{"query-sequence": "AUUCCCCUGGUCAUGGAGUGA [Fam2.1 aminoacylation ribozyme variant]", "target-desc": "biotinyl-Phe-oxazolone", "class-label": "true (1)"}
{"query-sequence": "AUUACCCUCCUCAUCGAGUGA [Fam2.1 aminoacylation ribozyme variant]", "target-desc": "biotinyl-Phe-oxazolone", "class-label": "true (1)"}
{"query-sequence": "AUUCCUCUAGGUCAUCGGGUG [Fam2.2 aminoacylation ribozyme variant]", "target-desc": "biotinyl-Phe-oxazolone", "class-label": "true (1)"}
{"query-sequence": "CUCCCUCAAACAAUCGGUCUG [Fam1A.1 aminoacylation ribozyme variant]", "target-desc": "biotinyl-Phe-oxazolone", "class-label": "true (1)"}
{"query-sequence": "AUUACCCUGGCCAUCGAGAGA [Fam2.1 aminoacylation ribozyme variant]", "target-desc": "biotinyl-Phe-oxazolone", "class-label": "false (0)"}
{"query-sequence": "AUUCACCUCGGUCUUCGGGUG [Fam2.2 aminoacylation ribozyme variant]", "target-desc": "biotinyl-Phe-oxazolone", "class-label": "true (1)"}
